Please respond with reported Oxacillin MIC for every item in the list.
- Tested on: MRSA
- METHOD_NOTES: Potentiating effect of galloyl quinic acid derivatives for the antibacterial activity of oxacillin (agar plate dilution method, MIC)
- Assay type: cell-based, Staphylococcus aureus
- CONDITION_CONTEXT: MRSA 4; with 12.5 μg/ml of compound
Numbers only, in µg/mL.

{"COMPOUND": "COC(=O)C1(O)CC(OC(=O)c2cc(O)c(O)c(O)c2)C(OC(=O)c2cc(O)c(O)c(O)c2)C(OC(=O)c2cc(O)c(O)c(O)c2)C1 (stereo not shown)", "Oxacillin MIC [µg/mL]": 256}
{"COMPOUND": "COC(=O)C1(O)CC(O)C(OC(=O)c2cc(O)c(O)c(O)c2)C(OC(=O)c2cc(O)c(O)c(O)c2)C1 (stereo not shown)", "Oxacillin MIC [µg/mL]": 128}

With those in mind, consider the next compound.
**Query** Find the recorded Oxacillin MIC belonging to O=C(OC1CC(O)(C(=O)O)CC(OC(=O)c2cc(O)c(O)c(O)c2)C1OC(=O)c1cc(O)c(O)c(O)c1)c1cc(O)c(O)c(O)c1 (stereo not shown) and report it.
**Result** 32

----------
- Test system: MRSA and MSSA
- METHOD_NOTES: Antibacterial activity of gallic acid, various gallates and multivalent phenol derivatives alone (agar plate dilution method, MIC)
- Type: cell-based, Staphylococcus aureus
- CONDITION_CONTEXT: Staphylococcus aureus, MSSA #1020; compound alone; read-out: MIC
MEASURED_QUANTITY: MIC (µg/mL)
Give bare numbers, in µg/mL.

{"COMPOUND": "CCCCCCCCCCCCOC(=O)c1cc(O)c(O)c(O)c1 [Lauryl gallate, n-lauryl gallate]", "MEASURED_QUANTITY": "MIC", "RESULT_UNIT": "µg/mL", "DATA_VALUE": 62.5}
{"COMPOUND": "CCCCCOC(=O)c1ccc(O)cc1 [n-Amyl 4-hydroxybenzoate]", "MEASURED_QUANTITY": "MIC", "RESULT_UNIT": "µg/mL", "DATA_VALUE": 62.5}
{"COMPOUND": "CC(C)CCOC(=O)c1ccc(O)cc1 [Isoamyl 4-hydroxybenzoate]", "MEASURED_QUANTITY": "MIC", "RESULT_UNIT": "µg/mL", "DATA_VALUE": 62.5}
{"COMPOUND": "CC(C)CCOC(=O)c1cc(O)c(O)c(O)c1 [isoAmyl gallate, Isoamyl gallate]", "MEASURED_QUANTITY": "MIC", "RESULT_UNIT": "µg/mL", "DATA_VALUE": 62.5}
{"COMPOUND": "CC(C)COC(=O)c1cc(O)c(O)c(O)c1 [isoButyl gallate, isobutyl gallate]", "MEASURED_QUANTITY": "MIC", "RESULT_UNIT": "µg/mL", "DATA_VALUE": 125}

Report MIC for each item below.
1. CCCCCCCCCCCOC(=O)c1cc(O)c(O)c(O)c1 [Undecyl gallate, n-undecyl gallate]
2. CCCC(=O)c1cc(O)c(O)cc1O [2′,4′,5′-trihydroxybutyrophenone]
3. CC(=O)c1ccc(O)c(O)c1O [2′,3′,4′-trihydroxyacetophenone]

**Result**
[31.3, 125, 62.5]

----------
- Tested on: MRSA
- METHOD_NOTES: Potentiating effect of galloyl quinic acid derivatives for the antibacterial activity of oxacillin (agar plate dilution method, MIC)
- Format: cell-based, Staphylococcus aureus
- CONDITION_CONTEXT: MRSA 2; with 12.5 μg/ml of compound
MEASURED_QUANTITY: Oxacillin MIC (µg/mL)
One number for each entry, in µg/mL.

Below: 2 molecules and their reported Oxacillin MIC.
{"MOLECULE": "COC(=O)C1(O)CC(OC(=O)c2cc(O)c(O)c(O)c2)C(OC(=O)c2cc(O)c(O)c(O)c2)C(OC(=O)c2cc(O)c(O)c(O)c2)C1 (stereo not shown) [compound 2]", "Oxacillin MIC (µg/mL)": 256}
{"MOLECULE": "COC(=O)C1(O)CC(O)C(OC(=O)c2cc(O)c(O)c(O)c2)C(OC(=O)c2cc(O)c(O)c(O)c2)C1 (stereo not shown) [compound 1]", "Oxacillin MIC (µg/mL)": 2}

With those in mind, consider the next molecule.
**Query** Find the recorded Oxacillin MIC belonging to O=C(OC1CC(O)(C(=O)O)CC(OC(=O)c2cc(O)c(O)c(O)c2)C1OC(=O)c1cc(O)c(O)c(O)c1)c1cc(O)c(O)c(O)c1 (stereo not shown) [compound 3] and report it.
**Result** 2

----------
- Tested on: MRSA
- METHOD_NOTES: Potentiating effect of galloyl quinic acid derivatives for the antibacterial activity of oxacillin (agar plate dilution method, MIC)
- Assay type: cell-based, Staphylococcus aureus
- CONDITION_CONTEXT: MRSA 9; with 50 μg/ml of compound
MEASURED_QUANTITY: Oxacillin MIC (µg/mL)
Answers are plain numbers, in µg/mL.

Below: 2 compounds and their reported Oxacillin MIC.
{"COMPOUND": "COC(=O)C1(O)CC(O)C(OC(=O)c2cc(O)c(O)c(O)c2)C(OC(=O)c2cc(O)c(O)c(O)c2)C1 (stereo not shown) [compound 1]", "Oxacillin MIC / µg/mL": 8}
{"COMPOUND": "COC(=O)C1(O)CC(OC(=O)c2cc(O)c(O)c(O)c2)C(OC(=O)c2cc(O)c(O)c(O)c2)C(OC(=O)c2cc(O)c(O)c(O)c2)C1 (stereo not shown) [compound 2]", "Oxacillin MIC / µg/mL": 128}

With those in mind, consider the next compound.
**Query** Find the recorded Oxacillin MIC belonging to O=C(OC1CC(O)(C(=O)O)CC(OC(=O)c2cc(O)c(O)c(O)c2)C1OC(=O)c1cc(O)c(O)c(O)c1)c1cc(O)c(O)c(O)c1 (stereo not shown) [compound 3] and report it.
**Result** 2

----------
- Tested on: MRSA
- METHOD_NOTES: Potentiating effect of galloyl quinic acid derivatives for the antibacterial activity of oxacillin (agar plate dilution method, MIC)
- Assay type: cell-based, Staphylococcus aureus
- CONDITION_CONTEXT: MRSA 22; with 50 μg/ml of compound
MEASURED_QUANTITY: Oxacillin MIC
Express the reported value numerically, then name its unit.

{"MOLECULE": "O=C(OC1CC(O)(C(=O)O)CC(OC(=O)c2cc(O)c(O)c(O)c2)C1OC(=O)c1cc(O)c(O)c(O)c1)c1cc(O)c(O)c(O)c1 (stereo not shown)", "DATA_VALUE": "1 µg/mL"}

Report Oxacillin MIC for each item below.
1. COC(=O)C1(O)CC(O)C(OC(=O)c2cc(O)c(O)c(O)c2)C(OC(=O)c2cc(O)c(O)c(O)c2)C1 (stereo not shown)
2. O=C(OC1CC(O)(C(=O)O)CC(O)C1OC(=O)c1cc(O)c(O)c(O)c1)c1cc(O)c(O)c(O)c1 (stereo not shown)
3. COC(=O)C1(O)CC(OC(=O)c2cc(O)c(O)c(O)c2)C(OC(=O)c2cc(O)c(O)c(O)c2)C(OC(=O)c2cc(O)c(O)c(O)c2)C1 (stereo not shown)

**Result**
1 µg/mL
64 µg/mL
32 µg/mL

----------
- System: MRSA
- METHOD_NOTES: Potentiating effect of galloyl quinic acid derivatives for the antibacterial activity of oxacillin (agar plate dilution method, MIC)
- Type: cell-based, Staphylococcus aureus
- CONDITION_CONTEXT: MRSA COL; with 25 μg/ml of compound
MEASURED_QUANTITY: Oxacillin MIC

{"COMPOUND": "COC(=O)C1(O)CC(O)C(OC(=O)c2cc(O)c(O)c(O)c2)C(OC(=O)c2cc(O)c(O)c(O)c2)C1 (stereo not shown) [compound 1]", "MEASURED_QUANTITY": "Oxacillin MIC", "DATA_VALUE": "32 µg/mL"}

Report Oxacillin MIC for each item below.
1. O=C(OC1CC(O)(C(=O)O)CC(OC(=O)c2cc(O)c(O)c(O)c2)C1OC(=O)c1cc(O)c(O)c(O)c1)c1cc(O)c(O)c(O)c1 (stereo not shown) [compound 3]
2. O=C(OC1CC(O)(C(=O)O)CC(O)C1OC(=O)c1cc(O)c(O)c(O)c1)c1cc(O)c(O)c(O)c1 (stereo not shown) [compound 4]
3. COC(=O)C1(O)CC(OC(=O)c2cc(O)c(O)c(O)c2)C(OC(=O)c2cc(O)c(O)c(O)c2)C(OC(=O)c2cc(O)c(O)c(O)c2)C1 (stereo not shown) [compound 2]

**Result**
1. 4 µg/mL
2. >256 µg/mL
3. 128 µg/mL

----------
- System: MRSA
- METHOD_NOTES: Potentiating effect of galloyl quinic acid derivatives for the antibacterial activity of oxacillin (agar plate dilution method, MIC)
- Format: cell-based, Staphylococcus aureus
- CONDITION_CONTEXT: MRSA 22; with 25 μg/ml of compound
Please respond with reported Oxacillin MIC for every item in the list.

Below: 3 molecules and their reported Oxacillin MIC.
{"MOLECULE": "O=C(OC1CC(O)(C(=O)O)CC(O)C1OC(=O)c1cc(O)c(O)c(O)c1)c1cc(O)c(O)c(O)c1 (stereo not shown)", "Oxacillin MIC": "64 µg/mL"}
{"MOLECULE": "O=C(OC1CC(O)(C(=O)O)CC(OC(=O)c2cc(O)c(O)c(O)c2)C1OC(=O)c1cc(O)c(O)c(O)c1)c1cc(O)c(O)c(O)c1 (stereo not shown)", "Oxacillin MIC": "<0.5 µg/mL"}
{"MOLECULE": "COC(=O)C1(O)CC(OC(=O)c2cc(O)c(O)c(O)c2)C(OC(=O)c2cc(O)c(O)c(O)c2)C(OC(=O)c2cc(O)c(O)c(O)c2)C1 (stereo not shown)", "Oxacillin MIC": "16 µg/mL"}

With those in mind, consider the next molecule.
**Query** Find the recorded Oxacillin MIC belonging to COC(=O)C1(O)CC(O)C(OC(=O)c2cc(O)c(O)c(O)c2)C(OC(=O)c2cc(O)c(O)c(O)c2)C1 (stereo not shown) and report it.
**Result** 0.5 µg/mL
